Listed below: growth inhibition values for each entry.
assay: NCI Yeast Anticancer Drug Screen. Data for the rad50 strain (AID 155);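 further: 0% = growth of vehicle-only cultures of the same strain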; settings: S. cerevisiae rad50 strain growth inhibition; at 5.0 µM (retest, dose inferred, filed as 0.5); stronger effect = higher value
About 79,000 compounds went through this panel and 15% of them were active in at least one assay; those are over-represented in the sample as a whole.
Enter your answer as a number in %; do not include the unit.

As a guide, the following entries are already answered.
INSERT INTO measurements (compound, result_units, readout_number) VALUES
  ('Cn1ncc2cc3c(Nc4ccc(Cl)cc4)cccc3nc21', '%', 25),
  ('O=C(O)c1[nH]c(=O)c2ccccc2c1Nc1ccccc1', '%', -6),
  ('CC(=O)C1=C(O)C2(C)c3c(O)c(C)c(O)c(C(C)=O)c3OC2(Sc2ccccc2)CC1=O (stereo not given)', '%', -15);

Okay, now this compound:
Ask: Identify measured growth inhibition associated with CC(=O)C1(O)Cc2c(O)c3c(c(O)c2C(OC2CC(N)C(O)C(C)O2)C1)C(=O)c1ccccc1C3=O (stereo not given)
Reply: 24

---

assay: NCI Yeast Anticancer Drug Screen. Data for the mlh1 rad18 strain (AID 175); conditions: S. cerevisiae mlh1 rad18 strain growth inhibition; at 50.0 µM (retest, dose inferred, filed as 5.0)
This is part of a sample that, as a whole, favours compounds with a hit. Of some 79,000 tested, about 15% had one in any assay. Calls of active or inactive are those of the source. Rule as the data show it: active = growth inhibition above about 70%; inactive = the rest.
Returns: one label drawn from 1 (active), 0 (inactive)

Look over these answered cases.
INSERT INTO measurements (compound, label_class) VALUES
  ('CCOC(=O)C1=C(C)NC(C)=C(C(=O)OCC)C1c1ccccc1Cl', 1),
  ('Nc1nc2c(c(=O)[nH]1)NC(CCNc1ccc(C(=O)O)cc1)CN2 (configuration not stated)', 0),
  ('CSc1s[s+]c(SC)c1-c1ccccc1', 0),
  ('COc1ccc(N=N/C(=N\NC(=O)c2cc(Br)ccc2O)c2ccc(N(CCC#N)CCC#N)cc2OC)cc1', 0),
  ('CCCCCCCCN1C(=O)c2ccccc2C1=O', 0),
  ('CN(CC(=O)O)c1ccc(/C=C/c2ccnc3ccccc23)cc1', 1);

Here is the next item to consider.
Ask: Which outcome did this test record for the compound CC(=O)C1=C(O)C2(C)c3c(O)c(C)c(O)c(C(C)=O)c3OC2(Sc2ccccc2)CC1=O (configuration not stated) ?
Reply: 1

---

experiment: NCI Yeast Anticancer Drug Screen. Data for the wt1 strain (AID 149);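 further: 0% = growth of vehicle-treated wt1 cultures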; details: S. cerevisiae wt1 strain (SPY 50644) growth inhibition; at 33.0 µM; stronger effect = higher value
This is part of a sample that, as a whole, favours compounds with a hit. Of some 79,000 tested, about 15% had one in any assay.
Please mark class 1 if the recorded growth inhibition is equal to or greater than 50%, and class 0 if it falls below.

INSERT INTO assay_data (compound, label_class) VALUES
  ('Cc1cc(C)c(N2C(=O)CC(Sc3ccccc3N)C2=O)c(C)c1 (stereo unspecified)', 'class 0'),
  ('CCCCC(CC)C(=O)Oc1ccc(C(=O)c2ccccc2)c(O)c1 (stereo unspecified)', 'class 0'),
  ('CC(=O)c1cc2c(Cl)cc(Cl)cc2oc1=O', 'class 0'),
  ('CCCCCC(=O)c1ccc(O)cc1O', 'class 1'),
  ('C/C(=N\NC(=S)NC1CCCC1)c1ccccn1', 'class 1'),
  ('O=c1[nH]c2ccccc2c2nc3ccccc3n12', 'class 0'),
  ('CN(C)Cc1cccc(CN(C)C)[c]1[Sn]([Br])([c]1ccccc1)[c]1ccccc1', 'class 1'),
  ('CC1=CCC(C(C)(C)c2ccc(O)cc2)CC1 (stereo unspecified)', 'class 1'),
  ('OB(O)c1ccccc1C#Cc1ccccc1B(O)O', 'class 0'),
  ('N#C/C(=C/c1c(Cl)cccc1Cl)C(N)=O', 'class 0');

Ask: Entry `BrCc1ccccc1C(c1ccccc1)c1ccccc1` : is its growth inhibition no less than 50%?
Reply: class 1

Ask: Entry `OCCNCCOc1ccc(/C(=C(/Cl)c2ccccc2)c2ccccc2)cc1` : is its growth inhibition no less than 50%?
Reply: class 1

Ask: Entry `ClCCn1c(CCl)nc2ccc(Cl)cc21` : is its growth inhibition no less than 50%?
Reply: class 1

Ask: Entry O=C1NC(c2c(Cl)cccc2Cl)Nc2ccccc21 (stereo unspecified) : is its growth inhibition no less than 50%?
Reply: class 1

Ask: Entry `[Pt].c1ccc(P(CCP(c2ccccc2)c2ccccc2)CCP(c2ccccc2)c2ccccc2)cc1` : is its growth inhibition no less than 50%?
Reply: class 1
